System: CAF#7 (primary prostate cancer-associated fibroblasts of myCAF-like type)
TEST DETAILS: drug sensitivity score (DSS2, normalised partial AUC of dose-response, 72 h CellTiter-Glo viability) (DSS (dimensionless)); higher = more sensitive (stronger growth inhibition / cytotoxicity); extreme values may be limits of the assay
Lab note: anything with drug sensitivity score at or over 3 counts as yes (1); the rest go in no (0).

MOLECULE	EXPERIMENTAL SYSTEM	ANSWER LABEL
COc1cc(Nc2ncc(F)c(Nc3ccc4c(n3)NC(=O)C(C)(C)O4)n2)cc(OC)c1OC [Tamatinib] (tested concentration range 1-10000 nM)	CAF#7	yes (1)
COC(=O)c1ccc([C@H]2c3[nH]c4ccccc4c3C[C@H](C(=O)OC)N2C(=O)CCl)cc1 [RSL3] (tested concentration range 1-10000 nM)	CAF#7	yes (1)
CC(C)Nc1cc(-c2c[nH]c(C(=O)N[C@H](CO)c3cccc(Cl)c3)c2)c(Cl)cn1 [Ulixertinib] (tested concentration range 1-10000 nM)	CAF#7	yes (1)
Cc1cc(Nc2ncc(Cl)c(Nc3ccccc3S(=O)(=O)C(C)C)n2)c(OC(C)C)cc1C1CCNCC1 [Ceritinib] (tested concentration range 0.2-2500 nM)	CAF#7	no (0)
CN1CCN(c2cc(C(=O)Nc3ccc4c(c3)-c3c(c(C(N)=O)nn3-c3ccc(F)cc3)CC4)c(Cl)cn2)CC1 [PHA 408] (tested concentration range 1-10000 nM)	CAF#7	yes (1)
CCCN(CCC)C(=O)C1=Cc2ccc(-c3ccc(C(=O)N4CCCC4)cc3)cc2N=C(N)C1 [Motolimod] (tested concentration range 1-10000 nM)	CAF#7	no (0)
CC1(C)CCC(c2ccc(Cl)cc2)=C(CN2CCN(c3ccc(C(=O)NS(=O)(=O)c4ccc(N[C@H](CCN5CCOCC5)CSc5ccccc5)c(S(=O)(=O)C(F)(F)F)c4)cc3)CC2)C1 [Navitoclax] (tested concentration range 1-10000 nM)	CAF#7	no (0)
CO[C@H]1C(=O)[C@]2(C)[C@@H](OC)C[C@H]3OC[C@@]3(OC(C)=O)[C@H]2[C@H](OC(=O)c2ccccc2)[C@]2(O)C[C@H](OC(=O)[C@H](O)[C@@H](NC(=O)OC(C)(C)C)c3ccccc3)C(C)=C1C2(C)C [Cabazitaxel] (tested concentration range 0.1-1000 nM)	CAF#7	yes (1)
Cc1cccc(-c2nn3c(c2-c2ccnc4ccc(C(N)=O)cc24)CCC3)n1 [Galunisertib] (tested concentration range 0.1-1000 nM)	CAF#7	no (0)
Cn1cnc2c(F)c(Nc3ccc(Br)cc3F)c(C(=O)NOCCO)cc21 [Binimetinib] (tested concentration range 0.1-1000 nM)	CAF#7	no (0)

* * *

The entries below are paired with their reported drug sensitivity score.
System: CAF#3 (primary prostate cancer-associated fibroblasts of myCAF-like type)
TEST DETAILS: drug sensitivity score (DSS2, normalised partial AUC of dose-response, 72 h CellTiter-Glo viability) (DSS (dimensionless)); higher = more sensitive (stronger growth inhibition / cytotoxicity); extreme values may be limits of the assay
ENDPOINT: drug sensitivity score

COMPOUND	EXPERIMENTAL SYSTEM	RESULT VALUE
O=C(Nc1cccc(NC(=O)c2cccc(O)c2O)c1)c1cccc(O)c1O [MST-312] (tested concentration range 1-10000 nM)	CAF#3	8.9
Cc1nc(C(=O)NCC(=O)O)c(O)c2ccc(Oc3ccccc3)cc12 [Roxadustat] (tested concentration range 1-10000 nM)	CAF#3	0
Nc1nc(Cl)nc2c1ncn2[C@@H]1O[C@H](CO)[C@@H](O)[C@@H]1F [Clofarabine] (tested concentration range 1-10000 nM)	CAF#3	5
Oc1ncnc2[nH]ncc12 [Allopurinol] (tested concentration range 1-10000 nM)	CAF#3	0
N#Cc1ccc(COC[C@H]2O[C@@H](n3c(NCc4ccc(Cl)c(Cl)c4)nc4c(N)ncnc43)[C@H](O)[C@@H]2O)cc1 (tested concentration range 1-10000 nM)	CAF#3	0.6
CC/C(=C(\c1ccc(O)cc1)c1ccc(OCCN(C)C)cc1)c1ccccc1 [4-hydroxytamoxifen] (tested concentration range 1-10000 nM)	CAF#3	1.6

* * *

Test system: CAF#2 (primary prostate cancer-associated fibroblasts of iCAF-like type)
TEST DETAILS: drug sensitivity score (DSS2, normalised partial AUC of dose-response, 72 h CellTiter-Glo viability) (DSS (dimensionless)); higher = more sensitive (stronger growth inhibition / cytotoxicity); extreme values may be limits of the assay
Lab note: anything with drug sensitivity score at or over 3 counts as Criterion met; the rest go in Criterion not met.

COMPOUND	EXPERIMENTAL SYSTEM	ANSWER LABEL
CCc1nc(C(N)=O)c(Nc2ccc(N3CCC(N4CCN(C)CC4)CC3)c(OC)c2)nc1NC1CCOCC1 [Gilteritinib] (tested concentration range 0.1-1000 nM)	CAF#2	Criterion not met
CCC/C=C/C=C/C(=O)O[C@H]1/C(=C/C(=O)OC)C[C@H]2C[C@H]([C@@H](C)O)OC(=O)C[C@H](O)C[C@@H]3C[C@H](OC(C)=O)C(C)(C)[C@](O)(C[C@@H]4C/C(=C/C(=O)OC)C[C@H](/C=C/C(C)(C)[C@]1(O)O2)O4)O3 [Bryostatin 1] (tested concentration range 0-100 nM)	CAF#2	Criterion met
Nc1nc(NC2CC2)cc(-c2cccc(Cl)c2Cl)n1 [TH588] (tested concentration range 2.5-25000 nM)	CAF#2	Criterion not met
CC(=O)Nc1cccc(-n2c(=O)n(C3CC3)c(=O)c3c(Nc4ccc(I)cc4F)n(C)c(=O)c(C)c32)c1 [Trametinib] (tested concentration range 0-250 nM)	CAF#2	Criterion met
O=S(=O)(c1cccc2c(O)nccc12)N1CCCNCC1 [Hydroxyfasudil] (tested concentration range 1.9-19000 nM)	CAF#2	Criterion not met
CS(=O)(=O)c1ccc(C(=O)Nc2ccc(Cl)c(-c3ccccn3)c2)c(Cl)c1 [Vismodegib] (tested concentration range 1-10000 nM)	CAF#2	Criterion not met
Cc1nc2cccc(N)c2c(=O)n1C1CCC(=O)NC1=O (stereo unspecified) [Avadomide] (tested concentration range 1-10000 nM)	CAF#2	Criterion not met
COc1cccc(OCCCN)c1-c1cc(Nc2cnc(C#N)cn2)n[nH]1 [Prexasertib] (tested concentration range 1-10000 nM)	CAF#2	Criterion met
C=CC(=O)N1CCC[C@@H](n2nc(-c3ccc(Oc4ccccc4)cc3)c3c(N)ncnc32)C1 [Ibrutinib] (tested concentration range 0.1-1000 nM)	CAF#2	Criterion not met
CC[C@]1(O)C[C@H]2CN(CCc3c([nH]c4ccccc34)[C@@](C(=O)OC)(c3cc4c(cc3OC)N(C=O)[C@H]3[C@@](O)(C(=O)OC)[C@H](OC(C)=O)[C@]5(CC)C=CCN6CC[C@]43[C@@H]65)C2)C1 [Vincristine] (tested concentration range 0.1-1000 nM)	CAF#2	Criterion met
COc1cc(C)c(/C=C/C(C)=C/C=C/C(C)=C/C(=O)O)c(C)c1C [Acitretin] (tested concentration range 1-10000 nM)	CAF#2	Criterion met

* * *

Test system: CAF#4 (primary prostate cancer-associated fibroblasts of iCAF-like type)
TEST DETAILS: drug sensitivity score (DSS2, normalised partial AUC of dose-response, 72 h CellTiter-Glo viability) (DSS (dimensionless)); higher = more sensitive (stronger growth inhibition / cytotoxicity); extreme values may be limits of the assay
ENDPOINT: drug sensitivity score

COMPOUND	RESULT VALUE
CC(C)(C)c1cc(NC(=O)Nc2ccc(-c3cn4c(n3)sc3cc(OCCN5CCOCC5)ccc34)cc2)no1 [Quizartinib] (tested concentration range 0.1-1000 nM)	0
CC[C@@H]1[C@H](F)C(=O)N[C@@H]1COc1nccc2cc(C(N)=O)c(OC)cc12 (tested concentration range 1-10000 nM)	0
NC(=O)N1CCC(CC(=O)N2CCC([C@H]3c4ncc(Br)cc4CCc4cc(Cl)cc(Br)c43)CC2)CC1 [Lonafarnib] (tested concentration range 5-50000 nM)	9
CC(C)c1cc(C(=O)N2Cc3ccc(CN4CCN(C)CC4)cc3C2)c(O)cc1O [Onalespib] (tested concentration range 0.2-2500 nM)	7.8
COc1cc(Nc2ncc(F)c(Nc3ccc4c(n3)NC(=O)C(C)(C)O4)n2)cc(OC)c1OC [Tamatinib] (tested concentration range 1-10000 nM)	5.8
O=C(Nc1cnn2ccc(N3CCC[C@@H]3c3cc(F)ccc3F)nc12)N1CC[C@H](O)C1 [Larotrectinib] (tested concentration range 0.1-1000 nM)	0
Cc1cc(OCc2nnc(SC3CCCC3)n2-c2cccnc2)ccc1-c1ccc(S(C)(=O)=O)cc1 [NMS-873] (tested concentration range 1-10000 nM)	5.7
Cn1ncc(Cl)c1-c1cc(C(=O)N[C@H](CN)Cc2cccc(F)c2)sc1Cl [Afuresertib] (tested concentration range 0.1-1000 nM)	1.7
CCC1(c2ccc(N)cc2)CCC(=O)NC1=O (stereo unspecified) [Aminoglutethimide] (tested concentration range 1-10000 nM)	0
Cc1ccccc1CN1C(=O)C2=C(CCN(Cc3ccccc3)C2)N2CCN=C12 [ONC201] (tested concentration range 2.5-25000 nM)	3.4
CN(C)CC#Cc1ccc(OCCCc2sc(N3CCc4cccc(C(=O)Nc5nc6ccccc6s5)c4C3)nc2C(=O)O)c(F)c1 (tested concentration range 1-10000 nM)	14.4
C[C@@H]1CN(Cc2ccc(F)cc2)[C@@H](C)CN1C(=O)c1cc2c(C(=O)C(=O)N(C)C)cn(C)c2cc1Cl [Talmapimod] (tested concentration range 1-10000 nM)	0
COc1c(OCCCN2CCOCC2)ccc2c1N=C(NC(=O)c1cnc(N)nc1)N1CCN=C21 [Copanlisib] (tested concentration range 0.1-1000 nM)	8.7
CC/C(=C(\c1ccc(O)cc1)c1ccc(OCCN(C)C)cc1)c1ccccc1 [4-hydroxytamoxifen] (tested concentration range 1-10000 nM)	6.2
CCc1c2c(nc3ccc(O)cc13)-c1cc3c(c(=O)n1C2)COC(=O)[C@]3(O)CC [SN-38] (tested concentration range 1-10000 nM)	20.3
CO[C@H]1C[C@@H]2CC[C@@H](C)[C@@](O)(O2)C(=O)C(=O)N2CCCC[C@H]2C(=O)O[C@H]([C@H](C)C[C@@H]2CC[C@@H](O)[C@H](OC)C2)CC(=O)[C@H](C)/C=C(\C)[C@@H](O)[C@@H](OC)C(=O)[C@H](C)C[C@H](C)/C=C/C=C/C=C/1C [Sirolimus] (tested concentration range 0-100 nM)	4.9
CN1CCC(COc2cnc(-c3cccc(Cn4nc(-c5cccc(C#N)c5)ccc4=O)c3)nc2)CC1 [Tepotinib] (tested concentration range 0.1-1000 nM)	0.5
CCC1=C[C@@H]2CN(C1)Cc1c([nH]c3ccccc13)[C@@](C(=O)OC)(c1cc3c(cc1OC)N(C)[C@H]1[C@@](O)(C(=O)OC)[C@H](OC(C)=O)[C@]4(CC)C=CCN5CC[C@]31[C@@H]54)C2 [Vinorelbine] (tested concentration range 1-10000 nM)	12.6
CN1CCN(c2nc(C3=C(c4c[nH]c5ccccc45)C(=O)NC3=O)c3ccccc3n2)CC1 [Sotrastaurin] (tested concentration range 1-10000 nM)	0
COc1cccc2c1c(O)c(C(=O)N(C)c1ccc(C(F)(F)F)cc1)c(=O)n2C [Tasquinimod] (tested concentration range 1-10000 nM)	0
O=C(Nc1cccc(NC(=O)c2cccc(O)c2O)c1)c1cccc(O)c1O [MST-312] (tested concentration range 1-10000 nM)	12.9
